B1: PLAGL1 (parent)
chain: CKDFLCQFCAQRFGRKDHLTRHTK

variants of: B1; assay: protein stability index of a GFP-peptide fusion (GPS, HEK-293T) (PSI 1-6); higher = more stable; conditions: c terminus: a fixed tail appended;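 further: lentivirally expressed fusions sorted by FACS into six bins by GFP to DsRed ratio, PSI derived from sequencing read proportions per bin multiplied by bin number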
Below, each of the variants is paired with its reported protein stability index value.
Lab note: record just the number, no unit beside it.

In the examples that follow, each entry is paired with its recorded protein stability index.
| changes | recordedResult |
| --- | --- |
| Q11W | 1.76 |
| F13N | 2.35 |
| K2G | 2.43 |
| T20Q | 1.75 |
| H18L | 1.33 |

[Q] Recorded protein stability index for `R21C` , please?
[A] 2.01

[Q] Item `D3A` has what recorded protein stability index?
[A] 1.57

[Q] GET /values?readout=protein stability index&item= `D17Y`
[A] 1.7

[Q] GET /values?readout=protein stability index&item= `Q7E`
[A] 2.25
